molecular target: FLuc-C-HiBiT (firefly luciferase) (Photinus pyralis, UniProt P08659, form not given/L550V); assay: SDR assay, FLuc-C-HiBiT; conditions: 10 nM FLuc-C-HiBiT; normalized activity; Log [Compound], M -4.96
Sequence (P08659 2-550 L550V, form open): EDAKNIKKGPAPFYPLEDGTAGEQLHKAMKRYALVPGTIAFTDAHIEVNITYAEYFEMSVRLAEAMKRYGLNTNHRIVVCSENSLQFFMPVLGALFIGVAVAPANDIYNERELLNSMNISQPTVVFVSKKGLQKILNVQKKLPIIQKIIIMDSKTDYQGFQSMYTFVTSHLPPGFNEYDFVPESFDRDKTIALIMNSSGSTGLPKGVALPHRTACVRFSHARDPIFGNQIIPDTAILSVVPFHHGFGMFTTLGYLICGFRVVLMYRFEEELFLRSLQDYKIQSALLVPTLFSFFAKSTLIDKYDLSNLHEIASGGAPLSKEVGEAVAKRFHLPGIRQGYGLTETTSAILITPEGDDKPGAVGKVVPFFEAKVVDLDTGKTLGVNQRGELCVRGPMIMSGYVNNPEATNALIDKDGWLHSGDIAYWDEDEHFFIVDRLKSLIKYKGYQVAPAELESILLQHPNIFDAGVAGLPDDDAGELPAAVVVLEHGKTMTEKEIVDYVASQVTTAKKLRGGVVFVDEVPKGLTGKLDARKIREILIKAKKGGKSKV
# note: exactly 60 is not below, so it is class 0; use class 1 for SDR + 10 mM ATP strictly under it

# count of solved cases: 5
# Compound, Discrete label
rows = [
    ("O=C(O)CCSc1nnc(-c2ccc(Cl)cc2Cl)o1 [compound 00103142]", "class 0"),
    ("COc1ccc(-c2nc(-c3ccc(C(=O)O)cc3)no2)cc1 [compound 00168104]", "class 0"),
    ("Cc1ccc(-n2ncc3c(N4CCCCCC4)ncnc32)cc1 [compound 00139018]", "class 0"),
    ("O=C(O)c1cccc2c1CCN2C(=O)Nc1ccc(F)cc1 [compound 00432687]", "class 0"),
    ("Fc1ccc(-c2cn3cc(Cc4ccccc4)sc3n2)cc1 [compound 00102110]", "class 1"),
]

Given CC1CCCN(c2ncnc3c2cnn3-c2ccccc2)C1 (centres unmarked) [compound 00081381] , is recorded SDR + 10 mM ATP strictly lower than 60?
class 1

Strictly below 60 in SDR + 10 mM ATP? CNC(=O)c1cccc2c1CCN2C(=O)Nc1ccc(C)cc1 [compound 00430160]
class 0

----------
A collection of compounds and their measured SDR
biological target: FLuc-C-NLuc (firefly luciferase) (Photinus pyralis, UniProt P08659, form not given/L550V); experiment: SDR assay, FLuc-C-NLuc; conditions: Log[Compound], M -5.44; absence of ATP
Sequence (P08659 2-550 L550V, form open): as above
Enter the number alone.

Example entries and their recorded answers appear below.
# Compound, SDR
measured = [
    ("CC1CCC(NC(=O)C2CCN(C(=O)c3ncn4c3COC(c3ccc(Cl)cc3)C4)CC2)CC1 (centres unmarked) [NCGC00449845]", 1.62),
    ("COc1ccc(NC(=O)C2CCN(C(=O)c3ncn4c3COC(c3ccccc3)C4)CC2)cc1Cl (centres unmarked) [NCGC00449919]", 16.90),
    ("CC(CNC(=O)C1CCN(C(=O)c2ncn3c2COC(c2ccccc2)C3)CC1)c1ccccc1 (centres unmarked) [compound 00449795]", 11.00),
    ("O=C(Nc1cccc(F)c1)C1CCN(C(=O)c2ncn3c2COC(c2ccccc2)C3)CC1 (centres unmarked) [NCGC00449914]", 7.78),
]

# ---- query compound ----
Specify reported SDR for the compound shown: CC(NC(=O)C1CCN(C(=O)c2ncn3c2COC(c2ccc(F)cc2)C3)CC1)c1ccc(F)cc1 (centres unmarked) [NCGC00449825]
4.05

----------
molecular target: FLuc-C-NLuc (firefly luciferase) (Photinus pyralis, UniProt P08659, form not given/L550V); test: SDR assay, FLuc-C-NLuc; conditions: - ATP
Collected Efficacy (%) FLuc-C-NLuc SDR (-ATP) values appear next to each entry.
Provide the measurement as a number trailed by its unit.

# Compound, Recorded result
records = [
    ("O=C(NCc1ccc(F)cc1)C1CCN(C(=O)c2ncn3c2COC(c2ccccc2)C3)CC1 (stereo not shown) [NCGC00449784-01]", "0.00%"),
    ("CC(C)c1cccc(NC(=O)C2CCN(C(=O)c3ncn4c3COC(c3ccccc3)C4)CC2)c1 (stereo not shown) [NCGC00449908-01]", "0.00%"),
]

Determine from records and report Efficacy (%) FLuc-C-NLuc SDR (-ATP) for Cc1ccc(C2Cn3cnc(C(=O)N4CCC(C(=O)NCc5cccc(Cl)c5)CC4)c3CO2)cc1 (stereo not shown) [NCGC00449892-01]
0.00%

Give me measured Efficacy (%) FLuc-C-NLuc SDR (-ATP), please, for this compound: CCc1ccc(CNC(=O)C2CCN(C(=O)c3ncn4c3COC(c3ccccc3)C4)CC2)cc1 (stereo not shown) [NCGC00449775-01]
0.00%

Give the value of Efficacy (%) FLuc-C-NLuc SDR (-ATP) reported for the following: O=C(NCCc1ccccc1)C1CCN(C(=O)c2ncn3c2COC(c2ccc(Cl)cc2)C3)CC1 (stereo not shown) [NCGC00449854-01]
0.00%

Give Efficacy (%) FLuc-C-NLuc SDR (-ATP) for the following compound: O=C(NCC1CCCCC1)C1CCN(C(=O)c2ncn3c2COC(c2ccc(F)cc2)C3)CC1 (stereo not shown) [NCGC00449830-01]
0.00%

Tell me measured Efficacy (%) FLuc-C-NLuc SDR (-ATP) for COc1ccc(C2Cn3cnc(C(=O)N4CCC(C(=O)NC(C)C)CC4)c3CO2)cc1 (stereo not shown) [NCGC00449857-01] please.
0.00%

Identify the reported Efficacy (%) FLuc-C-NLuc SDR (-ATP) for the following entry. COc1ccc(C2Cn3cnc(C(=O)N4CCC(C(=O)NCC5CC5)CC4)c3CO2)cc1 (stereo not shown) [NCGC00449873-01]
0.00%

Give the reported value of Efficacy (%) FLuc-C-NLuc SDR (-ATP) for this record: Cc1ccc(C2Cn3cnc(C(=O)N4CCC(C(=O)NCc5ccccc5Cl)CC4)c3CO2)cc1 (stereo not shown) [NCGC00449891-01]
0.00%

Dear colleague, please send me the reported Efficacy (%) FLuc-C-NLuc SDR (-ATP) for CC1CCC(NC(=O)C2CCN(C(=O)c3ncn4c3COC(c3ccc(Cl)cc3)C4)CC2)CC1 (stereo not shown) [NCGC00449845-01] when you can.
0.00%

----------
target: FLuc-C-HiBiT (Photinus pyralis, UniProt P08659); construct: firefly luciferase with C-terminal HiBiT tag, E. coli expressed; experiment: biochemical; conditions: enzyme activity, 10 uM ATP; read-out: IC50 or SDR50 (mM) / FLuc E
Sequence (P08659 whole entry, looked up): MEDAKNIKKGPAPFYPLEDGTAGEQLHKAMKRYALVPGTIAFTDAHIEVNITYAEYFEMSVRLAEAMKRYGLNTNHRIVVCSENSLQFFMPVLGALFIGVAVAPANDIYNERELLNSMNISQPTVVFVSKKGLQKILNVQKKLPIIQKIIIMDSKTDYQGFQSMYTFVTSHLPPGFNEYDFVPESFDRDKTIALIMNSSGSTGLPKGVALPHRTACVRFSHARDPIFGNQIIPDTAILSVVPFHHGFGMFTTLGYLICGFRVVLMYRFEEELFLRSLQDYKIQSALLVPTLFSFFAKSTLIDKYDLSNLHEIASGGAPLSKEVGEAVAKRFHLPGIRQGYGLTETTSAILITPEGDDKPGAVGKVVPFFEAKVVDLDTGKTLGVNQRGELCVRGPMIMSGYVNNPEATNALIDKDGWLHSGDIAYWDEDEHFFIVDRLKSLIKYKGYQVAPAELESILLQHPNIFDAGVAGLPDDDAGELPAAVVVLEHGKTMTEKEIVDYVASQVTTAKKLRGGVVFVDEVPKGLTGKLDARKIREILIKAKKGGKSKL
Assay metric: IC50

A selection of reference data follows.
# Compound, Recorded result
data = [
    ("COc1ccc(-c2noc(-c3ccc(C)cc3Cl)n2)cc1OC [NCGC00102273-01]", "0.00124 mM"),
    ("COc1ccc(-c2noc([C@@H]3C[C@@H](O)CN3Cc3cccs3)n2)cc1 [NCGC00400674-01]", "0.0202 mM"),
    ("Cc1cc(C)cc(NC(=O)C2CCN(C(=O)c3ncn4c3COC(c3ccccc3)C4)CC2)c1 (centres unmarked) [NCGC00449905-01]", "0.00313 mM"),
    ("CCC(=O)NCCC1CCN(C(=O)Nc2ccc(C)c(F)c2)CC1 [NCGC00425067-01]", "0.0111 mM"),
    ("CCNc1cc(N2CCC(CCC(=O)O)CC2)ncn1 [NCGC00432807-01]", "0.00556 mM"),
    ("CCc1ccccc1NC(=O)c1cc2c(=O)[nH]c(C)cn2n1 [NCGC00453924-01]", "0.0157 mM"),
    ("Cc1ccc(-c2cc3c(=O)n(CCNC(=O)c4ccoc4)ccn3n2)cc1C [NCGC00457019-01]", "0.00989 mM"),
]

Given the compound CC(C)(Oc1nn(CC2CC2)c2ccc(CN3CCCC3)cc12)C(=O)NC1CCOCC1 [NCGC00419513-01] , write its reported IC50.
> 0.03 mM

----------
target: FLuc-C-HiBiT (firefly luciferase) (Photinus pyralis, UniProt P08659, form not given/L550V); test: SDR assay, FLuc-C-HiBiT; conditions: + ATP; SDR max. response; clade S
Reported values of % Activity (max response, + ATP) for individual entries
State the answer as a number, implicitly in %.

# Compound, Result unit, % Activity (max response, + ATP)
rows = [
    ("CCc1ccc(CNC(=O)C2CCN(C(=O)c3ncn4c3COC(c3ccccc3)C4)CC2)cc1 (stereo not shown)", "%", 294.78),
    ("Cc1ccc(C2Cn3cnc(C(=O)N4CCC(C(=O)NCc5ccccc5F)CC4)c3CO2)cc1 (stereo not shown)", "%", 72.23),
    ("O=C(NC1CCCCC1)C1CCN(C(=O)c2ncn3c2COC(c2ccc(Cl)cc2)C3)CC1 (stereo not shown)", "%", 33.25),
    ("O=C(Nc1ccc(F)c(F)c1)C1CCN(C(=O)c2ncn3c2COC(c2ccccc2)C3)CC1 (stereo not shown)", "%", 236.10),
    ("Cc1ccc(CNC(=O)C2CCN(C(=O)c3ncn4c3COC(c3ccc(F)cc3)C4)CC2)cc1 (stereo not shown)", "%", 17.69),
]

Note % Activity (max response, + ATP) for the compound shown: Cc1ccc(NC(=O)C2CCN(C(=O)c3ncn4c3COC(c3ccccc3)C4)CC2)cc1C (stereo not shown)
306.70

Return reported % Activity (max response, + ATP). Input compound: COc1ccc(C2Cn3cnc(C(=O)N4CCC(C(=O)NCc5cccc(C)c5)CC4)c3CO2)cc1 (stereo not shown)
0.00

Identify measured % Activity (max response, + ATP) associated with CCCCNC(=O)C1CCN(C(=O)c2ncn3c2COC(c2ccc(F)cc2)C3)CC1 (stereo not shown)
23.59

For CCCCNC(=O)C1CCN(C(=O)c2ncn3c2COC(c2ccc(OC)cc2)C3)CC1 (stereo not shown) , write its % Activity (max response, + ATP).
0.00

Please report % Activity (max response, + ATP) for the following compound: COc1ccc(C2Cn3cnc(C(=O)N4CCC(C(=O)NC5CCCCC5)CC4)c3CO2)cc1 (stereo not shown)
0.00

// fetch % Activity (max response, + ATP) given entry CC(C)c1ccc(NC(=O)C2CCN(C(=O)c3ncn4c3COC(c3ccc(F)cc3)C4)CC2)cc1 (stereo not shown)
35.93

Fill in % Activity (max response, + ATP) for record O=C(NCc1ccccc1)C1CCN(C(=O)c2ncn3c2COC(c2ccc(F)cc2)C3)CC1 (stereo not shown)
33.80

Using the record for COc1ccc(CNC(=O)C2CCN(C(=O)c3ncn4c3COC(c3ccc(C)cc3)C4)CC2)cc1 (stereo not shown) , state its measured % Activity (max response, + ATP).
80.81

Supply % Activity (max response, + ATP) value. Item: Cc1ccc(C2Cn3cnc(C(=O)N4CCC(C(=O)NC(C)c5ccccc5)CC4)c3CO2)cc1 (stereo not shown)
100.93

Return value of % Activity (max response, + ATP) for input O=C(NCc1ccccc1F)C1CCN(C(=O)c2ncn3c2COC(c2ccccc2)C3)CC1 (stereo not shown) , no commentary.
339.74

Hello, please tell me recorded % Activity (max response, + ATP) for this one: COc1ccc(C2Cn3cnc(C(=O)N4CCC(C(=O)NC(C)C)CC4)c3CO2)cc1 (stereo not shown)
13.32
